// provenance: PubChem BioAssay

Below is a list of entries, each paired with its recorded viability value.
assay remarks: SK-BR-3 cell growth inhibitors, pilot screen, 24 h, human (AID 572);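 note: compound exposure lasted between 18 and 24 h rather than exactly 24 h; 100% = carrier-treated control wells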
test parameters: SK-BR-3 viability, CellTiter-Glo luminescence, at 10 µM, stronger effect = lower value

>  <molecule>
Cc1cc(NC(=O)CSc2ccc(Cl)cc2)no1

>  <viability [%]>
88.5

$$$$
>  <molecule>
Cc1nnc(SCc2ccccc2)n1N

>  <viability [%]>
104

$$$$
>  <molecule>
O=S(=O)(c1ccc(F)c(Cl)c1)N1CCCC1

>  <viability [%]>
100

$$$$
>  <molecule>
CCc1nc(C)c(-c2ccccc2)c(=O)[nH]1

>  <viability [%]>
102

$$$$
>  <molecule>
Cn1c(=O)c2c([nH]c(=O)n2C)n(C)c1=O

>  <viability [%]>
104

$$$$
>  <molecule>
CCCn1c(N)c(C(=O)CSc2nnc(Cc3ccccc3)o2)c(=O)n(C)c1=O

>  <viability [%]>
104

$$$$
>  <molecule>
COc1ccc(NC(=O)CCc2nc(-c3ccccc3F)no2)cc1

>  <viability [%]>
115

$$$$
>  <molecule>
c1ccc(CCc2nc(-c3cccnc3)no2)cc1

>  <viability [%]>
86.5

$$$$
>  <molecule>
C#CCN1C(=O)C(O)(CC(=O)c2cccc(OC)c2)c2ccccc21 (configuration not stated)

>  <viability [%]>
100

$$$$
>  <molecule>
Cc1ccc(C2N(c3ccc(Cl)c(Cl)c3)C(=O)C3CCCN32)o1 (configuration not stated)

>  <viability [%]>
99

$$$$
>  <molecule>
O=C(OCc1nnc(-c2ccccc2)o1)C1=COCCO1

>  <viability [%]>
100

$$$$
>  <molecule>
Cc1cc(C)n(CCCNC(=O)c2ccc3c(c2)NC(=O)CS3)n1

>  <viability [%]>
104

$$$$

###

assay remarks: reversal of MRP1-mediated doxorubicin resistance, pilot screen, H69AR cells, doxorubicin co-treatment (AID 601)
test parameters: H69AR cells + 2 uM doxorubicin, CellTiter-Glo, 72 h; measured here: viability with 2 uM doxorubicin; at 10 µM; stronger effect = lower value

>  <compound>
CCn1c(=O)cc(OCC(=O)NCCCN2CC(C)CC(C)C2)c2ccccc21 (stereo not given)

>  <viability / %>
75.5

$$$$
>  <compound>
COc1ccc(-c2cc(O)cc(O)c2)cc1

>  <viability / %>
79.9

$$$$
>  <compound>
CC(c1nnc(SCC(=O)Nc2sccc2C#N)n1-c1ccc(Cl)cc1)N(C)C (stereo not given)

>  <viability / %>
81.2

$$$$
>  <compound>
COc1cc(NC(=O)Cc2nn(C)c(=O)c3ccccc23)cc(OC)c1

>  <viability / %>
87.1

$$$$
>  <compound>
COc1ccc(CN(CC(=O)NCC2CCCO2)C(=O)CNS(=O)(=O)c2ccc(C)cc2)cc1 (stereo not given)

>  <viability / %>
95

$$$$
>  <compound>
Cc1ccc2cc(C#N)c(NCCCNC(=O)C3CCCO3)nc2c1 (stereo not given)

>  <viability / %>
86.4

$$$$
>  <compound>
COc1ccc(CNC(=O)COC(=O)c2n[nH]c3ccccc23)cc1OC

>  <viability / %>
84.6

$$$$
>  <compound>
COc1ccc(OC)c(S(=O)(=O)N2CCC(C(=O)NCC3CCCO3)CC2)c1 (stereo not given)

>  <viability / %>
90.2

$$$$
>  <compound>
CCOC(=O)C1=C(C)N=c2s/c(=C\c3cccn3C)c(=O)n2C1c1cccc(OC)c1OC (stereo not given)

>  <viability / %>
89

$$$$
>  <compound>
CCNc1nc(N2CCOCC2)nc(N(c2ccccc2)c2ccccc2)n1

>  <viability / %>
79.4

$$$$

###

assay remarks: HUVEC growth inhibition – cell-based, human, primary screen (AID 575);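 note: 100% = median of untreated cell wells with 0.1% DMSO on each plate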
test parameters: HUVEC proliferation, CellTiter-Glo luminescence, 72 h; at 10 µM; stronger effect = lower value
The source made the active and inactive calls.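 How the source made its calls: active means viability at or below 30% in both replicate assays; inconclusive means viability at or below 30% in just one of the two assays; inactive means the rest.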
Below is a list of entries, each paired with its recorded viability value.
measure: viability

>  <molecule>
C=CCNC(=O)c1cc(-c2ccccc2O)on1

>  <assay result>
99.1% (inactive)

$$$$
>  <molecule>
Cc1nn(-c2ccccc2)c(C)c1/C=N/O

>  <assay result>
100% (inactive)

$$$$
>  <molecule>
O=C(CN1C(=O)C2CC=C(Cl)CC2C1=O)Nc1ccc(C(=O)O)cc1 (stereo unspecified)

>  <assay result>
99.1% (inactive)

$$$$
>  <molecule>
CCCCC(=O)NCCNc1nc2c(c(=O)n(C)c(=O)n2C)n1Cc1ccccc1

>  <assay result>
99.3% (inactive)

$$$$
>  <molecule>
COC(=O)c1c(NC(=O)c2ccc(S(=O)(=O)N3CCOCC3)cc2)sc2c1CCN(C)C2

>  <assay result>
94.8% (inactive)

$$$$
>  <molecule>
C=CCOc1cccc(C2/C(=C(\O)c3ccc(F)cc3)C(=O)C(=O)N2CCN(C)C)c1 (stereo unspecified)

>  <assay result>
98% (inactive)

$$$$
>  <molecule>
O=C(CSc1nnc(-c2cccs2)o1)N1CCOCC1

>  <assay result>
99.4% (inactive)

$$$$
>  <molecule>
Cc1csc(SCC(=O)NC(=O)NCc2ccccc2)n1

>  <assay result>
103% (inactive)

$$$$
>  <molecule>
Cc1nc(SCC(=O)N2CCC(C(N)=O)CC2)n[nH]1

>  <assay result>
109% (inactive)

$$$$
>  <molecule>
COc1cccc(NC(=O)COC(=O)c2ccco2)c1

>  <assay result>
97.6% (inactive)

$$$$
>  <molecule>
CCOc1cc2[nH]c(=O)n(CCCCC(=O)N3CCCCCC3)c(=O)c2cc1OCC

>  <assay result>
91.6% (inactive)

$$$$
>  <molecule>
Cc1cc(C)cc(NC(=O)CCNS(=O)(=O)c2ccc3c(c2)oc(=O)n3C)c1

>  <assay result>
95.8% (inactive)

$$$$
>  <molecule>
O=S(=O)(NCC1CCCO1)c1cccc(C(F)(F)F)c1 (stereo unspecified)

>  <assay result>
95.1% (inactive)

$$$$
>  <molecule>
COc1ccc2nc(CC(C)(C)CC(=O)O)c[n+]([O-])c2c1

>  <assay result>
106% (inactive)

$$$$
>  <molecule>
Cc1cc2c(=O)n(CC(=O)N3CCN(c4ccccc4)CC3)cnc2s1

>  <assay result>
100% (inactive)

$$$$
>  <molecule>
CC1=C(C(=O)N2CCCCC2)C2(CCC(C)CC2)OC1=O (stereo unspecified)

>  <assay result>
109% (inactive)

$$$$
>  <molecule>
CC1CN(S(=O)(=O)c2cccc(C(=O)OCc3cc(=O)oc4cc(O)ccc34)c2)CC(C)O1 (stereo unspecified)

>  <assay result>
61.1% (inactive)

$$$$
>  <molecule>
CC1=Nn2c(nnc2-c2cc(-c3ccccc3)n[nH]2)SC1

>  <assay result>
94.3% (inactive)

$$$$
>  <molecule>
CC(NC(=O)Nc1nccs1)(C(F)(F)F)C(F)(F)F

>  <assay result>
103% (inactive)

$$$$
>  <molecule>
COc1cc(OC)cc(-c2nnc(Nc3nc4c(F)cccc4s3)o2)c1

>  <assay result>
5.89% (active)

$$$$
>  <molecule>
CC(C)C(=O)Nc1nnc(CCc2nnc(NC(=O)C(C)C)s2)s1

>  <assay result>
106% (inactive)

$$$$
>  <molecule>
O=S(=O)(c1ccc2ccccc2c1)N1CCCCC1

>  <assay result>
78% (inactive)

$$$$
>  <molecule>
CCCCn1nnnc1SCC(=O)N1CCN(C(=O)c2ccco2)CC1

>  <assay result>
111% (inactive)

$$$$
>  <molecule>
CCCCC(=O)NCCc1ccc(S(N)(=O)=O)cc1

>  <assay result>
95.4% (inactive)

$$$$
>  <molecule>
COc1ccc(-c2nn3c(-c4ccncc4)nnc3s2)cc1OC

>  <assay result>
104% (inactive)

$$$$
>  <molecule>
O=C(Nc1ccc2c(c1)OCO2)c1nn(-c2ccccc2)c(=O)c2ccccc12

>  <assay result>
72.8% (inactive)

$$$$
>  <molecule>
COCCNC(=O)C(c1cccc(OC)c1)N(Cc1cccs1)C(=O)Cn1nnc2ccccc21 (stereo unspecified)

>  <assay result>
105% (inactive)

$$$$
>  <molecule>
Cn1cnnc1SCC(=O)NCc1cccc(C(F)(F)F)c1

>  <assay result>
102% (inactive)

$$$$
>  <molecule>
CCOC(=O)Nc1cc(OCC)c(NC(=O)C2CC2)cc1OCC

>  <assay result>
111% (inactive)

$$$$
>  <molecule>
Cc1cc(C)nc(SCC(=O)Nc2ncc3c(n2)CCCC3=O)n1

>  <assay result>
99% (inactive)

$$$$
>  <molecule>
C/C(=C\c1cc(C(=O)O)c(C)o1)CO

>  <assay result>
108% (inactive)

$$$$
>  <molecule>
C=CCN(C(=O)CNS(=O)(=O)c1ccccc1)C(C(=O)NCCOC)c1ccncc1 (stereo unspecified)

>  <assay result>
97.6% (inactive)

$$$$
>  <molecule>
Cc1cc(C(=O)Nc2ccccc2C#N)n(-c2ccccc2)n1

>  <assay result>
92.8% (inactive)

$$$$
>  <molecule>
CCCn1c(SCC(=O)N2CCN(c3ccccc3)CC2)nc2ccccc2c1=O

>  <assay result>
70.7% (inactive)

$$$$
>  <molecule>
CC1(C)Cc2cccc(OCC(O)CN3CCN(c4ccccn4)CC3)c2O1 (stereo unspecified)

>  <assay result>
86.1% (inactive)

$$$$
>  <molecule>
Cc1c(C(=O)O)oc2ccc(S(=O)(=O)NCCC3=CCCCC3)cc12

>  <assay result>
95.9% (inactive)

$$$$
>  <molecule>
Cc1cc(C(=O)NCCN2CCCCC2C)n(-c2ccccc2)n1 (stereo unspecified)

>  <assay result>
92.3% (inactive)

$$$$
>  <molecule>
CCOC(=O)Cn1nc(-c2ccc(C)cc2)ccc1=O

>  <assay result>
94.1% (inactive)

$$$$
>  <molecule>
CC(C)CNC(=O)c1ccccc1NC(=O)c1ccc(CN2CCOCC2)cc1

>  <assay result>
106% (inactive)

$$$$
>  <molecule>
CSc1nc(=NC(C)=O)ss1

>  <assay result>
84.7% (inactive)

$$$$
>  <molecule>
O=C(Nc1ccc2snnc2c1)N1CCSCC1

>  <assay result>
103% (inactive)

$$$$
>  <molecule>
Cc1nn(S(=O)(=O)N2CCCCC2)c(C)c1Br

>  <assay result>
96.2% (inactive)

$$$$
>  <molecule>
COCCNC(=O)CN(C)S(=O)(=O)c1ccc2c(c1)OCCO2

>  <assay result>
104% (inactive)

$$$$
>  <molecule>
CCN(CCCNC(=O)C1CCN(S(=O)(=O)c2cccc3nonc23)CC1)Cc1ccccc1

>  <assay result>
103% (inactive)

$$$$
>  <molecule>
CC(C)C(c1nnnn1CC1CCCO1)N1CCN(Cc2ccc3c(c2)OCO3)CC1 (stereo unspecified)

>  <assay result>
113% (inactive)

$$$$
>  <molecule>
CCc1cc2c(CN3CCN(CCO)CC3)cc(=O)oc2cc1O

>  <assay result>
90.4% (inactive)

$$$$
